Each recorded value in this set is attributed to PubChem BioAssay (NCI).

tested on: MOLT-4 leukemia; assay: NCI-60 one-dose screen, 48 h (100 = growth as untreated, 0 = no growth, -100 = all killed); details: 10 µM
About 83,000 compounds went through this panel and 20% of them were active in at least one assay; those are over-represented in the sample as a whole.
Reported growth maps to class as: lower range: < 20%; middle range: ≥ 20% and < 90%; upper range: ≥ 90%

| molecule | group |
| --- | --- |
| O=C1/C=C/[C@@H](O)[C@@H]2C[C@@H](O)C[C@H]2/C=C/CCC[C@@H](C(F)(F)F)O1 | middle range |
| c1ccc(CSc2ncccc2-c2nnc(SCCN3CCOCC3)o2)cc1 | upper range |
| Cc1cc(Br)nnc1Br | upper range |
| O=C(O)Cc1ccc(O)c(O)c1 | upper range |
| O=C1/C(=C/c2cccc(F)c2)Cc2ccccc21 | upper range |
| CCOC(=O)c1cc(C(=O)c2cc(OC)c(OC)c(OC)c2)n2nc(C)ccc12 | lower range |
| NNC(=O)Oc1c(Cl)cc(Cl)cc1[N+](=O)[O-] | upper range |
| O=C1NC(=O)c2c(CCCSc3nc4ccccc4c(=O)n3CCc3ccccc3)cccc21 | middle range |
| O=C1c2ccccc2C(=O)N1CCCCNc1ccccc1 | middle range |
| COc1ccc(CCN2CCC(Nc3nc4ccccc4n3Cc3ccc(F)cc3)CC2)cc1 | lower range |
| Cc1ccc(C(SCC(N)C(=O)O)(c2ccc(C)cc2)c2ccc(C)cc2)cc1 (stereo unspecified) | lower range |
| CCOC(=O)c1sc2ncnc(Nc3ccc(NC(=O)Nc4ccc(Cl)cc4)cc3)c2c1C | middle range |
| CN(C)CCCOc1cccc(NC2=C(Cl)C(=O)C(Nc3cccc(OCCCN(C)C)c3)=C(Cl)C2=O)c1 | lower range |
| CCOC(=O)CSc1nc(-c2cc(OC)ccc2OC)cc(-c2ccc(OC)cc2)c1C#N | middle range |
| COc1cc(-c2nn(-c3cccc(NC(=O)NCCNC(=O)c4ccccc4)c3)cc2-c2ccncc2)ccc1Cl | lower range |
| O=C(CCCSc1nc(-c2ccc(Cl)cc2)cc(-c2ccc(Cl)cc2)n1)NO | lower range |
| Cc1noc(C)c1CSc1ccccc1C(=O)N1CCN(c2cccc(C(F)(F)F)c2)CC1 | middle range |
| CN1C(=O)C2(Nc3cc(Cl)ccc3S2)c2cc(Cl)ccc21 (stereo unspecified) | middle range |
| CC(C)=CCC/C(C)=C/CC/C(C)=C/CC/C=C(\C)CC/C=C(\C)CCC(=O)Nc1ccn(C2OC(CO)C(O)C2(F)F)c(=O)n1 (stereo unspecified) | lower range |
